# testProtocol: Cytotoxicity against human Kga1 cells by MTT assay
# Format: functional
recordedEndpoint: IC30 (µg/mL)
Field: numeric (µg/mL). Do not append units.

Previously resolved entries follow.
>>> df
                            structuresmiles  unitsofmeasure  valuereported
0  CSc1ncc(C2C(C(=O)Nc3cccnc3)=C(C)NC(C)=C2C(=O)Nc2cccnc2)n1Cc1ccccc1           µg/mL           27.5
1  CSc1ncc(C2C(C(=O)Nc3ccccn3)=C(C)NC(C)=C2C(=O)Nc2ccccn2)n1Cc1ccccc1           µg/mL           19.1
2  CSc1ncc(C2C(C(=O)Nc3ccc(Cl)cc3)=C(C)NC(C)=C2C(=O)Nc2ccc(Cl)cc2)n1Cc1ccccc1           µg/mL           58.9

Consider the additional compound presented here.
Request: Supply IC30 value. Item: `CSc1ncc(C2C(C(=O)Nc3cccc(Cl)c3)=C(C)NC(C)=C2C(=O)Nc2cccc(Cl)c2)n1Cc1ccccc1`
Response: 26.3

Source of measurements: ChEMBL document CHEMBL1153008
